biological target: CDK6/CyclinD1 (Homo sapiens); assay: In vitro cell-free CDK6/CyclinD1 kinase activity assay (TR-FRET); conditions: ATP at Km
pIC50: −log10 of the molar value.
measurement_type: pIC50

Consider the worked cases shown below.
COc1cc(F)ccc1-c1c(C#N)cc2cnc(Nc3ccc(N4CCNCC4)cc3)nn12 [Example 11] | > 7.00
N#Cc1cc2cnc(Nc3ccc(N4CCNCC4)cc3)nn2c1-c1ccc2ccccc2c1 [Example 14] | > 7.00
Cc1nn(C)cc1-c1cc2cnc(Nc3ccc(N4CCNCC4)cn3)nn2c1C1=CCCC1 [Example 23] | 6.00 to 7.00

With those in mind, consider the next molecule.
Return value of pIC50 for input [2H]C([2H])([2H])N(C(=O)c1cc2cnc(Nc3ccc(N4CCN(CC)CC4)cn3)nn2c1C1=CCCC1)C([2H])([2H])[2H] [Example 118] , no commentary. > 7.00

---

biological target: CDK6/CyclinD1 (Homo sapiens, UniProt Q00534); test: In vitro cell-free CDK6/CyclinD1 kinase activity assay (TR-FRET); conditions: ATP at Km
Sequence (Q00534 whole entry): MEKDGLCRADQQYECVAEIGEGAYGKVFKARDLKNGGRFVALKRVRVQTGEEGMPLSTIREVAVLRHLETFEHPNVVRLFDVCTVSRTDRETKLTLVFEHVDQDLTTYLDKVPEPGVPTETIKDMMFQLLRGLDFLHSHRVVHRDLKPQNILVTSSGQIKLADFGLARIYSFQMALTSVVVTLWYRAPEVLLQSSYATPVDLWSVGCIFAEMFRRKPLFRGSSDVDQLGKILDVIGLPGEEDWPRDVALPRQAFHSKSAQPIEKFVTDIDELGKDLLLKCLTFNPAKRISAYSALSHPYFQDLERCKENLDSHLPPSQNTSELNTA
Sequence (P24385 whole entry partner): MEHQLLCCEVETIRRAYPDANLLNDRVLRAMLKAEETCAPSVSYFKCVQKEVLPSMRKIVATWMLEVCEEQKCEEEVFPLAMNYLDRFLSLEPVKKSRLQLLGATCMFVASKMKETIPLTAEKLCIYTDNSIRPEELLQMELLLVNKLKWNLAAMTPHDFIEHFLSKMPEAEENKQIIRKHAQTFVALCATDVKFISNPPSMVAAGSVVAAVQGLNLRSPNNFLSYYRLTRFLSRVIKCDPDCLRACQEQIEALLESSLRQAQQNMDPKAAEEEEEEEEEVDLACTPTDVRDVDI
Let's look at some compounds and their measured IC50.

Name the recorded IC50 of the compound listed here: `COc1cc(F)ccc1-c1c(-c2cn[nH]c2)cc2cnc(Nc3ccc(N4CCNCC4)cn3)nn12` < 100 nM

---

target: CDK6/CyclinD1 (Homo sapiens); assay: In vitro cell-free CDK6/CyclinD1 kinase activity assay (TR-FRET); conditions: ATP at Km
Each entry below carries its reported IC50.

Here are 4 compounds together with their reported answers.
N#Cc1cc2cnc(Nc3ccc(N4CCNCC4)cc3)nn2c1Br [Example 1] | < 100 nM
CN(C)C(=O)c1cc2cnc(Nc3ccc(N4CCNCC4)cn3)nn2c1-c1cnn(C)c1 [Example 56] | 100 to 1000 nM
Cc1nn(C)cc1-c1c(C(=O)N(C)C)cc2cnc(Nc3ccc(N4CC5(CNC5)C4)cn3)nn12 [Example 67] | 100 to 1000 nM
CN1CCN(c2ccc(Nc3ncc4ccc(C5=CCCC5)n4n3)cc2)CC1 [Example 5] | 100 to 1000 nM

Determine its reported IC50: [2H]C([2H])([2H])N1CCN(c2ccc(Nc3ncc4cc(C(=O)N(C([2H])([2H])[2H])C([2H])([2H])[2H])c(-c5ccccc5)n4n3)nc2)CC1 [Example 123] < 100 nM

For the compound Cn1cc(-c2cc3cnc(Nc4ccc(N5CCNCC5)cn4)nn3c2C2=CCCC2)ccc1=O [Example 73] , give its reported IC50. < 100 nM

// fetch IC50 given entry CN(C)C(=O)c1cc2cnc(Nc3ccc(N4CCNCC4)cn3)nn2c1N1CCCCC1 [Example 31] < 100 nM

---

Attribute: pIC50
molecular target: CDK6/CyclinD1 (Homo sapiens, UniProt Q00534); construct: purchased Carna 04-114; experiment: In vitro cell-free CDK6/CyclinD1 kinase activity assay (TR-FRET); format: biochemical; conditions: ATP at Km
pIC50: −log10 of the molar value.

Take a look at these entries with their results.
COCCOc1ccc(-c2c(C(=O)N(C)C)cc3cnc(Nc4ccc(N5CC6(CCNC6)C5)cn4)nn23)cc1 | > 7.00
COc1ccc(-c2c(C#N)cc3cnc(Nc4ccc(N5CCNCC5)cc4)nn23)cc1 | > 7.00
Cc1noc(C)c1-c1c(-c2cnn(C)c2)cc2cnc(Nc3ccc(N4CCNCC4)cn3)nn12 | 6.00 to 7.00
COCCOc1ccc(-c2c(C(=O)N(C)C)cc3cnc(Nc4ccc(N5CCC6(CCNCC6)C5)cn4)nn23)cc1 | > 7.00
Cc1noc(C)c1-c1cc2cnc(Nc3ccc(N4CCNCC4)cn3)nn2c1C1=CCCC1 | 6.00 to 7.00
N#Cc1cc2cnc(Nc3ccc(N4CCNCC4)cc3)nn2c1C1=CCCC1 | > 7.00

Provide only the value of recorded pIC50 for `Cc1ccc(-c2cc3cnc(Nc4ccc(N5CCNCC5)cn4)nn3c2C2=CCCC2)s1` 6.00 to 7.00

Name the recorded pIC50 of the item `[2H]C([2H])([2H])N1CCN(c2ccc(Nc3ncc4cc(C(=O)N(C([2H])([2H])[2H])C([2H])([2H])[2H])c(-c5ccc(Cl)cc5)n4n3)nc2)CC1` in your answer. > 7.00

---

Listed here: items and their measured pIC50.
biological target: CDK6/CyclinD1 (Homo sapiens); test: In vitro cell-free CDK6/CyclinD1 kinase activity assay (TR-FRET); conditions: ATP at Km
pIC50: −log10 of the molar value.

Sample records with pIC50:
COc1ccccc1-c1c(C#N)cc2cnc(Nc3ccc(N4CCNCC4)cc3)nn12 [Example 10] | > 7.00
Cc1noc(C)c1-c1c(C(=O)N(C)C)cc2cnc(Nc3ccc(N4CC5(CCNC5)C4)cn3)nn12 [Reference Example 134, reference compound] | 5.52 to 6.00
COc1ccc(-c2c(C(=O)N(C)C)cc3cnc(Nc4ccc(N5CCN(C)CC5)cn4)nn23)cc1 [Example 100] | > 7.00
O=C1CCCN1c1cc2cnc(Nc3ccc(N4CCNCC4)cn3)nn2c1C1=CCCC1 [Example 52] | 6.00 to 7.00
CN(C)C(=O)c1cc2cnc(Nc3ccc(N4CCNCC4)cn3)nn2c1C1=CCCC1 [Example 28] | > 7.00
Cn1cc(-c2cc3cnc(Nc4ccc(N5CCNCC5)cn4)nn3c2Br)cn1 [Example 82] | 6.00 to 7.00
C1=C(c2c(-c3cccnc3)cc3cnc(Nc4ccc(N5CCNCC5)cn4)nn23)CCC1 [Example 88] | > 7.00

Report pIC50, nothing else, for this compound: CN(C)C(=O)c1cc2cnc(Nc3ccc(N4CCNCC4)cn3)nn2c1-c1ccc(F)cc1 [Example 32] > 7.00

---

target: CDK6/CyclinD1 (Homo sapiens, UniProt Q00534); experiment: In vitro cell-free CDK6/CyclinD1 kinase activity assay (TR-FRET); conditions: ATP at Km
pIC50: −log10 of the molar value.
Measured pIC50 of individual entries

Sample answers from the record:
Cc1ccc(-c2cc3cnc(Nc4ccc(N5CCNCC5)cn4)nn3c2C2=CCCC2)cn1 [Example 89] | > 7.00
CN(C)C(=O)c1cc2cnc(Nc3ccc(N4CC5(CCNC5)C4)cn3)nn2c1-c1ccncc1 [Example 69] | > 7.00
CCn1cc(-c2cc3cnc(Nc4ccc(N5CCNCC5)cn4)nn3c2C2=CCCC2)cn1 [Example 86] | > 7.00
COC(=O)c1cc2cnc(Nc3ccc(N4CC5(CNC5)C4)cn3)nn2c1-c1cccc2cccnc12 [Reference Example 133, reference compound] | < 5.52
CN(C)C(=O)c1cc2cnc(Nc3ccc(N4CCC5(CC4)CNC5)cn3)nn2c1C1=CCCC1 [Example 41] | > 7.00

Quickly give me recorded pIC50 for Cn1cc(-c2c(Br)c3cnc(Nc4ccc(N5CCNCC5)cc4)nn3c2Br)cn1 [Example 8] > 7.00

Output pIC50 of Cc1noc(C)c1-c1c(-c2cnn(C)c2)c(-c2c(C)noc2C)n2nc(Nc3ccc(N4CCNCC4)cn3)ncc12 [Reference Example 131, reference compound] < 5.52

Determine from records and report pIC50 for Cn1cc(-c2cc3cnc(Nc4ccc(N5CCNCC5)cn4)nn3c2)cn1 [Example 81] 6.00 to 7.00

---

target: CDK6/CyclinD1 (Homo sapiens); test: In vitro cell-free CDK6/CyclinD1 kinase activity assay (TR-FRET); details: ATP at Km
pIC50: −log10 of the molar value.
Quick list: pIC50 per entry.

Please report pIC50 for the following molecule: [2H]C([2H])([2H])N1CCN(c2ccc(Nc3ncc4cc(C(=O)N(C)C)c(C5=CCOCC5)n4n3)nc2)CC1 [Example 106] > 7.00

For the molecule [2H]C([2H])([2H])N(C(=O)c1cc2cnc(Nc3ccc(N4CCN(C)CC4)cn3)nn2c1-c1ccc(OC)cc1)C([2H])([2H])[2H] [Example 121] , give its measured pIC50 value. > 7.00

Indicate the recorded pIC50 value for this molecule: [2H]C([2H])([2H])N(C(=O)c1cc2cnc(Nc3ccc(N4CCN(C)CC4)cn3)nn2c1C1=CCCC1)C([2H])([2H])[2H] [Example 113] > 7.00

---

# Lookup of reported IC50 keyed by entry
target: CDK6/CyclinD1 (Homo sapiens); assay: In vitro cell-free CDK6/CyclinD1 kinase activity assay (TR-FRET); settings: ATP at Km

N#Cc1cc2cnc(Nc3ccc(N4CCNCC4)cc3)nn2c1-c1cccnc1 | < 100 nM
CN(C)C(=O)c1cc2cnc(Nc3ccc(N4CCNCC4)cn3)nn2c1-c1cccnc1 | 100 to 1000 nM

State, in one line, measured IC50 of `COc1cc(F)ccc1-c1c(C(=O)N(C)C)cc2cnc(Nc3ccc(N4CCC5(CC4)CNC5)cn3)nn12` 100 to 1000 nM

Write down IC50 measured for item `C1=C(c2c(-c3cccs3)cc3cnc(Nc4ccc(N5CCNCC5)cn4)nn23)CCC1` < 100 nM

Retrieve IC50 measured for `N#Cc1cc2cnc(Nc3ccc(N4CCNCC4)cn3)nn2c1N1CCCC1` and print it. < 100 nM

Entry `N#Cc1cc2cnc(Nc3ccc(N4CCNCC4)cn3)nn2c1-c1ccc(Cl)cc1` needs its IC50 filled in; supply it. < 100 nM

Provide one value: measured IC50 of COc1ccc(-c2c(-c3cnn(C)c3)c(-c3ccc(OC)cc3)n3nc(Nc4ccc(N5CCNCC5)cn4)ncc23)cc1 [Reference Example 129, reference compound] > 3000 nM

Report IC50, nothing else, for this molecule: `CN(C)C(=O)c1cc2cnc(Nc3ccc(N4CCN(C5CC5)CC4)cn3)nn2c1C1=CCCC1` < 100 nM

Find the measured IC50 of `CN(C)C(=O)c1cc2cnc(Nc3ccc(N4CCC5(CC4)CNC5)cn3)nn2c1-c1cnn(C)c1` and report it. 100 to 1000 nM
